Dear all, this message contains Ki results, target or system Histamine H4 receptor (Homo sapiens, UniProt Q9H3N8).

Previously resolved entries follow.
# Ki of N=C(N)SCCc1cnc[nH]1 = 3.6 nM

Lab book: Ki of C/N=C(\N)N/N=C(/C)c1ccc2sc3ccc(/C(C)=N\N/C(N)=N/C)cc3c2c1 noted as 1480 nM

Ki in this record for N=C(N)NCc1cccc(CNC(=N)N)n1 : 1240 nM

Lab note: measured Ki of CC(/C=C(\C)NNC(=N)N)=N/NC(=N)N was 897 nM

Entry under test: C[C@@H](N)Cc1c[nH]cn1 . Its Ki was 184 nM

***
Input NC(=NCc1ccc(Cl)cc1)SCCCc1cnc[nH]1 . Output Ki: 5 nM

Documented Ki of NC(=NCCc1ccc(I)cc1)SCCCc1cnc[nH]1 : 7.8 nM

* * *

# measured target: Histamine H4 receptor (Homo sapiens)
# Sequence (Q9H3N8 whole entry): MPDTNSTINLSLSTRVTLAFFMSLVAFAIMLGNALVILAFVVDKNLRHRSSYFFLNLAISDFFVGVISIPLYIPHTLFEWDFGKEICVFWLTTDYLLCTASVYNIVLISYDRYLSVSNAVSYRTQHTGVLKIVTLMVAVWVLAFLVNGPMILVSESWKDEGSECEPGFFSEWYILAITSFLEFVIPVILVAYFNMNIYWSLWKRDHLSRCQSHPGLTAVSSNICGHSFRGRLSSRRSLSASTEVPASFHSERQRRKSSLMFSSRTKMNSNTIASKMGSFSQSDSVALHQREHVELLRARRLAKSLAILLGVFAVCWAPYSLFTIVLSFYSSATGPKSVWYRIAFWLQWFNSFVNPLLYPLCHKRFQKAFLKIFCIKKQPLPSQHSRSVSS
# measurement protocol: Displacement of [3H]histamine from human histamine H4 receptor expressed in […] cells at 5 uM
# Format: cell-based
# protocol conditions: SK-N-MC
measured attribute: Activity (%)
Dear colleague, please return just the value in %, with no unit written.

Consider the reported Activity for these compounds:
Activity reported for this compound CC(/C=C/NNC(=N)N)=N/NC(=N)N : 33.9

Form: compound = CN1CCN(C(=O)c2cccc(Nc3nc(-c4ccccc4)c4cc(Br)ccc4n3)c2)CC1 ; Activity = 23

Reported Activity ( CN(CCN(C)c1ccc(N)cc1)c1ccc(N)cc1 ) = 34.3

The compound listed as N=C(N)NN/C(=C(\O)c1ccccc1)c1ccccc1 shows Activity equal to 34.7

Others:
Query CCOC(=O)c1ccc(NC2=CC(=O)/C(=N\NC(=N)N)c3ccccc32)cc1 yields Activity of 92.6
